Biological target: hChoKβ FL (Homo sapiens)
Construct: hChoKβ full length (FL), corresponding to aminoacids 2-395; GST (N, cleaved yes); PreScission Protease recognition site (N); made in house; host or cells: Escherichia coli BL21pLysS (DE3)
Sequence (Q9Y259 2-395): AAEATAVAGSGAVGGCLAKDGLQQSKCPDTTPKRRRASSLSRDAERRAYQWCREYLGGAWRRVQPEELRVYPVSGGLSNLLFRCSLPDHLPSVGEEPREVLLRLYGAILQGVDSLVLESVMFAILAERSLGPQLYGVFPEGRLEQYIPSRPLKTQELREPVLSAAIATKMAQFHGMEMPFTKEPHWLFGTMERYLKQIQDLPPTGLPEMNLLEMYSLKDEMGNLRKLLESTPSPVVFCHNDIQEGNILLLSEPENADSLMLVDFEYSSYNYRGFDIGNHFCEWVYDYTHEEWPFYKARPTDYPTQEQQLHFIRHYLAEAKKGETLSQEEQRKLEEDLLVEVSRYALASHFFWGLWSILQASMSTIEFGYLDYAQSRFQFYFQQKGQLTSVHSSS
Assay: Biochemical kinase inhibition assay (Kinase-Glo luminescent) on hChoKβ FL
Conditions: recombinant hChoKβ FL 30 nM, ATP 5 μM, choline 20 μM, 60 min rt; read-out: ChoKβ IC50
parameter: pIC50
Answers are plain numbers, as −log10 of the molar value.

The following compounds have reported results that may help.
# compound, pIC50
rows = [
    ("CC1(C)Cc2cnc(N)nc2-c2[nH]nc(C(=O)Nc3nc(COC4CCN(C5CCC6(CC5)CC6)CC4)cs3)c21 [compound 230]", 6.23),
    ("CC1(C)Cc2cnc(N)nc2-c2[nH]nc(C(=O)Nc3ncc(CC(=O)NC4CCCCC4)s3)c21 [compound 73]", 6.22),
    ("CC1CCN(C2CCN(C(=O)Cc3csc(NC(=O)c4nn(C)c5c4C(C)(C)Cc4cnc(N)nc4-5)n3)CC2)CC1 [compound 80]", 5.50),
    ("CC1(C)Cc2cnc(N)nc2-c2[nH]nc(C(=O)Nc3nc(CN4CCC(N5CCCCC5)CC4)cs3)c21 [compound 143]", 5.67),
    ("CC1(C)Cc2cnc(N)nc2-c2[nH]nc(C(=O)Nc3nc(CC(=O)N4CCC(N)CC4)cs3)c21 [compound 44]", 6.59),
]

Each compound below has a reported value. Please supply its pIC50.
1. CC1(C)Cc2c(C(=O)Nc3nc(COC4CCN(C5CCCCCC5)CC4)cs3)n[nH]c2-c2nc(N)ncc21 [compound 232]
2. CCOC(=O)c1cnc(NC(=O)c2n[nH]c3c2C(C)(C)Cc2cnc(N)nc2-3)s1 [compound 81]

1: 6.84; 2: 5.27

* * *

Target: hChoKβ FL (Homo sapiens)
Construct: hChoKβ full length (FL), corresponding to aminoacids 2-395; GST (N, cleaved yes); PreScission Protease recognition site (N); made in house; host or cells: Escherichia coli BL21pLysS (DE3)
Experiment: Biochemical kinase inhibition assay (Kinase-Glo luminescent) on hChoKβ FL
Settings: recombinant hChoKβ FL 30 nM, ATP 5 μM, choline 20 μM, 60 min rt; read-out: ChoKβ IC50
parameter: pIC50
Answers are plain numbers, as −log10 of the molar value.

Some entries whose results are on file:
# input smiles, pIC50
rows = [
    ("CC1(C)Cc2cnc(N)nc2-c2[nH]nc(C(=O)Nc3nc(C(=O)N4CCC(N5CCCCC5)CC4)cs3)c21", 5.97),
    ("CN(C)[C@@H]1CCN(C(=O)Cc2csc(NC(=O)c3n[nH]c4c3C(C)(C)Cc3cnc(N)nc3-4)n2)C1", 7.11),
    ("Cn1nc(C(=O)Nc2nc(CC(=O)N3CCC(N4CCCCC4)CC3)cs2)c2c1-c1nc(N)ncc1CC2(C)C", 5.40),
    ("CC1(C)Cc2cnc(N)nc2-c2[nH]nc(C(=O)Nc3ccc(C(=O)NC4CCOCC4)cc3)c21", 6.40),
    ("CC1(C)Cc2cnc(N)nc2-c2[nH]nc(C(=O)Nc3ncc(C(=O)N4CCC(N5CCCCC5)CC4)s3)c21", 5.88),
]

Attention now shifts to the item below.
Retrieve pIC50 measured for COc1cccc(NC(=O)c2n[nH]c3c2C(C)(C)Cc2cnc(N)nc2-3)c1 and print it. 5.80
